The origin of these recorded values is paper PMC5700166.

Quick list: binding signal per entry.
# targetOrSystem: GST-Nv-NF-kB (Ser allele) (Nematostella vectensis, UniProt A7UNT2 2-411)
# Sequence: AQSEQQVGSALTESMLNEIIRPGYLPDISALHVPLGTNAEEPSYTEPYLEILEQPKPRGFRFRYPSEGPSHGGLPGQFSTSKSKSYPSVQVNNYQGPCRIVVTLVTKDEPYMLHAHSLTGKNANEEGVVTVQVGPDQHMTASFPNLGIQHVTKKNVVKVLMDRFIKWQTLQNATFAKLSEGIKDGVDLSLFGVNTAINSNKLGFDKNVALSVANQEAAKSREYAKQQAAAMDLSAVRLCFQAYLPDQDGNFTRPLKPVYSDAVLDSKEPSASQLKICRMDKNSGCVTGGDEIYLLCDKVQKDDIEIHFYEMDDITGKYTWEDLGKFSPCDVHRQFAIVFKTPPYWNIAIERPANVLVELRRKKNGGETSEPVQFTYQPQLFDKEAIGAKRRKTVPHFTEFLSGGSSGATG
# assayMethodText: protein-binding microarray (PBM); PBM: ~300 nM protein, 6 mM HEPES pH 7.8, 80 mM KCl, 0.5 mM EDTA, 0.5 mM EGTA, 6% glycerol, 35 ng/ul poly-dIdC, 1% milk, 1 h, room temperature; high values mean tight binding
# conditionContext: dsDNA, one strand shown

sequenceChain	targetOrSystem	binding signal (z-score)
CCGATTAACATCAAACTGGGAAATGATGTTAATCGGGTCTTGATTCGCTTGACGCTGCTG	GST-Nv-NF-kB (Ser allele) (Nematostella vectensis, UniProt A7UNT2 2-411)	1.79
CCGATTAACATCAAAGAACCCCCTGATGTTAATCGGGTCTTGATTCGCTTGACGCTGCTG	GST-Nv-NF-kB (Ser allele) (Nematostella vectensis, UniProt A7UNT2 2-411)	7.44
CCGATTAACATCAGTCCCCCCCATGATGTTAATCGGGTCTTGATTCGCTTGACGCTGCTG	GST-Nv-NF-kB (Ser allele) (Nematostella vectensis, UniProt A7UNT2 2-411)	3.57
CCGATTAACATCAATCTCCCCCATGATGTTAATCGGGTCTTGATTCGCTTGACGCTGCTG	GST-Nv-NF-kB (Ser allele) (Nematostella vectensis, UniProt A7UNT2 2-411)	6.24
CCGATTAACATCAAATTCCCCCCTGATGTTAATCGGGTCTTGATTCGCTTGACGCTGCTG	GST-Nv-NF-kB (Ser allele) (Nematostella vectensis, UniProt A7UNT2 2-411)	8.88
CCGATTAACATCACGTTTTCCCCTGATGTTAATCGGGTCTTGATTCGCTTGACGCTGCTG	GST-Nv-NF-kB (Ser allele) (Nematostella vectensis, UniProt A7UNT2 2-411)	10.1
CCGATTAACATCAGACATTTCCCTGATGTTAATCGGGTCTTGATTCGCTTGACGCTGCTG	GST-Nv-NF-kB (Ser allele) (Nematostella vectensis, UniProt A7UNT2 2-411)	4.39
CCGATTAACATCAGGGAGTTCACTGATGTTAATCGGGTCTTGATTCGCTTGACGCTGCTG	GST-Nv-NF-kB (Ser allele) (Nematostella vectensis, UniProt A7UNT2 2-411)	1.78
CCGATTAACATCAGGGGACTTACTGATGTTAATCGGGTCTTGATTCGCTTGACGCTGCTG	GST-Nv-NF-kB (Ser allele) (Nematostella vectensis, UniProt A7UNT2 2-411)	5.43

* * *

# targetOrSystem: GST-Hu-p50 (Homo sapiens, UniProt P19838 7-356)
# Sequence (P19838 7-356): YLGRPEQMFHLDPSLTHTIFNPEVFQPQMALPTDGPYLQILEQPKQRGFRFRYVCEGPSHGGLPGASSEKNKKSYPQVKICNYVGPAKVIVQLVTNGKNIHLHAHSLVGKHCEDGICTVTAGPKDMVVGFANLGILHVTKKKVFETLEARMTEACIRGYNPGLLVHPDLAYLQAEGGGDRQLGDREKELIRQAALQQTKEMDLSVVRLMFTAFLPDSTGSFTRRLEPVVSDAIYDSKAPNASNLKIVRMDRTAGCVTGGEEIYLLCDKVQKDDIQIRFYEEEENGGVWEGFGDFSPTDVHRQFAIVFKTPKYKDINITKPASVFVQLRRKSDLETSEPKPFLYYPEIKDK
# assayMethodText: protein-binding microarray (PBM); PBM: ~300 nM protein, 6 mM HEPES pH 7.8, 80 mM KCl, 0.5 mM EDTA, 0.5 mM EGTA, 6% glycerol, 35 ng/ul poly-dIdC, 1% milk, 1 h, room temperature; high values mean tight binding
# conditionContext: dsDNA, one strand shown
Quick list: binding signal per entry.

sequenceChain	targetOrSystem	binding signal [z-score]
CCGATTAACATCAAATCTCCCCCTGATGTTAATCGGGTCTTGATTCGCTTGACGCTGCTG	GST-Hu-p50 (Homo sapiens, UniProt P19838 7-356)	7.19
CCGATTAACATCAAAGAAACCCCTGATGTTAATCGGGTCTTGATTCGCTTGACGCTGCTG	GST-Hu-p50 (Homo sapiens, UniProt P19838 7-356)	5.25
CCGATTAACATCAGGAATTTCCCTGATGTTAATCGGGTCTTGATTCGCTTGACGCTGCTG	GST-Hu-p50 (Homo sapiens, UniProt P19838 7-356)	6.03
CCGATTAACATCACGGAACCCCCTGATGTTAATCGGGTCTTGATTCGCTTGACGCTGCTG	GST-Hu-p50 (Homo sapiens, UniProt P19838 7-356)	5.79
CCGATTAACATCAGCCCGGGAAATGATGTTAATCGGGTCTTGATTCGCTTGACGCTGCTG	GST-Hu-p50 (Homo sapiens, UniProt P19838 7-356)	1.28
CCGATTAACATCAGGCCTTCCCCTGATGTTAATCGGGTCTTGATTCGCTTGACGCTGCTG	GST-Hu-p50 (Homo sapiens, UniProt P19838 7-356)	4.63
CCGATTAACATCACAATATCCCCTGATGTTAATCGGGTCTTGATTCGCTTGACGCTGCTG	GST-Hu-p50 (Homo sapiens, UniProt P19838 7-356)	4.67
CCGATTAACATCAGGAAACCACCTGATGTTAATCGGGTCTTGATTCGCTTGACGCTGCTG	GST-Hu-p50 (Homo sapiens, UniProt P19838 7-356)	6.09

* * *

# targetOrSystem: GST-Aq-NF-kB (Amphimedon queenslandica, UniProt A9Y5G7 2-389)
# Sequence: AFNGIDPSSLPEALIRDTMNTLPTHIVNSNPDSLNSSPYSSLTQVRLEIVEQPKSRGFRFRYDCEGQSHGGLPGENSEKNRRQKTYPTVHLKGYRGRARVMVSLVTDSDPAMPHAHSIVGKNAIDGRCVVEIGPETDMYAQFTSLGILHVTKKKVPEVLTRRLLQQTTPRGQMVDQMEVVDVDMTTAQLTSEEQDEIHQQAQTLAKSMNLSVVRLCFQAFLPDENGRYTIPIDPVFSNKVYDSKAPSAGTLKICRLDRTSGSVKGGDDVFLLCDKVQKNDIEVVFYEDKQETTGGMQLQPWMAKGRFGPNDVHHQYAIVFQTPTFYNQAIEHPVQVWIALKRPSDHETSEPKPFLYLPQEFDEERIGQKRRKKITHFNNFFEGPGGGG
# assayMethodText: protein-binding microarray (PBM); PBM: ~300 nM protein, 6 mM HEPES pH 7.8, 80 mM KCl, 0.5 mM EDTA, 0.5 mM EGTA, 6% glycerol, 35 ng/ul poly-dIdC, 1% milk, 1 h, room temperature; high values mean tight binding
# conditionContext: dsDNA, one strand shown

sequenceChain	targetOrSystem	binding signal / z-score
CCGATTAACATCACCCCAAACGCTGATGTTAATCGGGTCTTGATTCGCTTGACGCTGCTG	GST-Aq-NF-kB (Amphimedon queenslandica, UniProt A9Y5G7 2-389)	1.09
CCGATTAACATCACGGGATCTCCTGATGTTAATCGGGTCTTGATTCGCTTGACGCTGCTG	GST-Aq-NF-kB (Amphimedon queenslandica, UniProt A9Y5G7 2-389)	3.77
CCGATTAACATCAGGGTGGGAAATGATGTTAATCGGGTCTTGATTCGCTTGACGCTGCTG	GST-Aq-NF-kB (Amphimedon queenslandica, UniProt A9Y5G7 2-389)	2.27
CCGATTAACATCAGGGGGATTAATGATGTTAATCGGGTCTTGATTCGCTTGACGCTGCTG	GST-Aq-NF-kB (Amphimedon queenslandica, UniProt A9Y5G7 2-389)	5.39
CCGATTAACATCAGTACTTCCCATGATGTTAATCGGGTCTTGATTCGCTTGACGCTGCTG	GST-Aq-NF-kB (Amphimedon queenslandica, UniProt A9Y5G7 2-389)	2.53
CCGATTAACATCACGGAAATCCCTGATGTTAATCGGGTCTTGATTCGCTTGACGCTGCTG	GST-Aq-NF-kB (Amphimedon queenslandica, UniProt A9Y5G7 2-389)	6.11

* * *

# targetOrSystem: GST-Nv-NF-kB (Cys allele) (Nematostella vectensis, UniProt E5G601 2-411)
# Sequence: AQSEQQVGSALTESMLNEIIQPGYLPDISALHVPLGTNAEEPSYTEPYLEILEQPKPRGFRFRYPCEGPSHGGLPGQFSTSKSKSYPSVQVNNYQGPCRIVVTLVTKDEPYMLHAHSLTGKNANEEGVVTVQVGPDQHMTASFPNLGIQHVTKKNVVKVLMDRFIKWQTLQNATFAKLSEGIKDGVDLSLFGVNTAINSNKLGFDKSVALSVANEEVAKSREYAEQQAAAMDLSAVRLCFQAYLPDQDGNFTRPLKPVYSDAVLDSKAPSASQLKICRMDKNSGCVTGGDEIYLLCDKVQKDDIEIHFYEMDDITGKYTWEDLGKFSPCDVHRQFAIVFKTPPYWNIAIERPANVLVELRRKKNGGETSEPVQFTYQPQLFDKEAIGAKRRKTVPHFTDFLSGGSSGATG
# assayMethodText: protein-binding microarray (PBM); PBM: ~300 nM protein, 6 mM HEPES pH 7.8, 80 mM KCl, 0.5 mM EDTA, 0.5 mM EGTA, 6% glycerol, 35 ng/ul poly-dIdC, 1% milk, 1 h, room temperature; Ap Aiptasia and Nv Nematostella (sea anemones) / Co Capsaspora / Aq Amphimedon (sponge) / Dm Drosophila / Hu human; RHD is the Rel homology domain; high values mean tight binding
# conditionContext: dsDNA, one strand shown

sequenceChain	targetOrSystem	unitOfMeasurement	binding signal
CCGATTAACATCAGGGGGGGCACTGATGTTAATCGGGTCTTGATTCGCTTGACGCTGCTG	GST-Nv-NF-kB (Cys allele) (Nematostella vectensis, UniProt E5G601 2-411)	z-score	3.1
CCGATTAACATCAGGGGATGAATTGATGTTAATCGGGTCTTGATTCGCTTGACGCTGCTG	GST-Nv-NF-kB (Cys allele) (Nematostella vectensis, UniProt E5G601 2-411)	z-score	4.37
CCGATTAACATCAAGGGGGAGGGTGATGTTAATCGGGTCTTGATTCGCTTGACGCTGCTG	GST-Nv-NF-kB (Cys allele) (Nematostella vectensis, UniProt E5G601 2-411)	z-score	3.46
CCGATTAACATCAGGGACTGCCCTGATGTTAATCGGGTCTTGATTCGCTTGACGCTGCTG	GST-Nv-NF-kB (Cys allele) (Nematostella vectensis, UniProt E5G601 2-411)	z-score	4.95
CCGATTAACATCAGGGGGTTTGATGATGTTAATCGGGTCTTGATTCGCTTGACGCTGCTG	GST-Nv-NF-kB (Cys allele) (Nematostella vectensis, UniProt E5G601 2-411)	z-score	4.29
CCGATTAACATCAAAATTCCACCTGATGTTAATCGGGTCTTGATTCGCTTGACGCTGCTG	GST-Nv-NF-kB (Cys allele) (Nematostella vectensis, UniProt E5G601 2-411)	z-score	2.45
CCGATTAACATCAGGGGAACACCTGATGTTAATCGGGTCTTGATTCGCTTGACGCTGCTG	GST-Nv-NF-kB (Cys allele) (Nematostella vectensis, UniProt E5G601 2-411)	z-score	6.62
CCGATTAACATCAGGGAAATTAATGATGTTAATCGGGTCTTGATTCGCTTGACGCTGCTG	GST-Nv-NF-kB (Cys allele) (Nematostella vectensis, UniProt E5G601 2-411)	z-score	5.52
CCGATTAACATCAAATCATCCCCTGATGTTAATCGGGTCTTGATTCGCTTGACGCTGCTG	GST-Nv-NF-kB (Cys allele) (Nematostella vectensis, UniProt E5G601 2-411)	z-score	5.38
CCGATTAACATCAATTTCCCATATGATGTTAATCGGGTCTTGATTCGCTTGACGCTGCTG	GST-Nv-NF-kB (Cys allele) (Nematostella vectensis, UniProt E5G601 2-411)	z-score	3.3
CCGATTAACATCAGGCCCCCCCCTGATGTTAATCGGGTCTTGATTCGCTTGACGCTGCTG	GST-Nv-NF-kB (Cys allele) (Nematostella vectensis, UniProt E5G601 2-411)	z-score	4.06
